- protocol_summary: Human HepG2 cell viability assay in 384 well format
- Format: toxicity, cell-based
- Parameters: dose 125 nL, time 70.5 hour; concentration not given beside the values
- condition_description: HepG2 cells, read-out: Inhibition
Catalogue of compounds with associated cytotoxicity at 70.5 h

{"columns": ["compound", "cytotoxicity at 70.5 h"],
 "data": [
  ["Cc1cc(C)n(-c2cncc(NCCNC(=O)CC3CCCC3)n2)n1", "-4.52%"],
  ["COCCn1cnnc1CCn1ccnc1-c1ccccc1Cl", "5.9%"],
  ["CN(C)Cc1noc2c1CN(Cc1ccc[nH]1)CC2", "-1.45%"],
  ["Cc1cccc(-c2noc(CN3CC(n4cccn4)C3)n2)c1", "-8.11%"],
  ["CC(NC(=O)c1coc(COc2cccc(F)c2)n1)c1nnc(N)s1 (configuration not stated)", "-10.7%"],
  ["CC(=O)N[C@H]1CN(S(=O)(=O)N(C)Cc2ccccc2)C[C@@H]1C1CC1", "-2.36%"],
  ["Cc1nc(C2CCCN(C(=O)c3ccc(OCC4CC4)nc3)C2)no1 (configuration not stated)", "-2.87%"],
  ["CNc1nc(C)cc(NCc2cc(C)cc3c(C)c(C)[nH]c23)n1", "98.8%"],
  ["O=S(=O)(Cc1ccccc1)CC(O)Cn1cccn1 (configuration not stated)", "-2.14%"],
  ["CC1CN(CC(=O)Nc2nncs2)CCN1Cc1nccn1C (configuration not stated)", "-4.59%"],
  ["O=C(NCC(O)c1ccccc1)Nc1cccs1 (configuration not stated)", "18.8%"],
  ["CCC(C)NC(=O)c1sccc1-n1cnnn1 (configuration not stated)", "27.2%"]
]}

* * *

Catalogue of molecules with associated cytotoxicity at 70.5 h
- protocol_summary: Human HepG2 cell viability assay in 384 well format
- Assay type: toxicity, cell-based
- Parameters: dose 125 nL, time 70.5 hour; concentration not given beside the values
- condition_description: HepG2 cells, read-out: Inhibition
measured_property: cytotoxicity at 70.5 h (%)

{"columns": ["molecule", "measured_number"],
 "data": [
  ["COCCc1noc(-c2ccc(N[C@H]3CCCCNC3=O)nc2)n1", 1.36],
  ["CC(=O)N1CCC(c2nc3ccc(-c4ccnn4C)cn3n2)CC1", -12.4],
  ["CN(C)C(=O)c1cccc(C2CNCCN2C)c1 (stereo not drawn)", -4.31],
  ["Cc1ccc2oc(=O)n(CCC(=O)N3CCN(C)C(=O)C3)c2c1", -3.44],
  ["Cn1ccnc1CN1CCCN(Cc2noc(C3CC3)n2)CC1", -1.01],
  ["CC(C)(C#N)c1ccccc1CN(CCO)Cc1ccsc1", -7.26],
  ["O=C(c1[nH]nc(C2CC2)c1Cl)N1CCN(C2CC2)C(=O)C1", -1.73],
  ["CN1CCN(c2cc(CCNC(=O)C3CCC3)nc(C3CC3)n2)CC1", -6.65],
  ["CS(=O)(=O)c1ccc2c(c1)nc1n2[C@@H](CNCc2cccnc2)COC1", -6.64],
  ["O=C1CN(C(=O)C2CCCOC2)CCN1Cc1ccc(Cl)cc1 (stereo not drawn)", -5.9],
  ["Cn1nnc2c1CCN(S(C)(=O)=O)C2COCc1ccccc1 (stereo not drawn)", 13.6],
  ["CNC(=O)C1CN(c2ncccn2)CCN1Cc1ccccc1 (stereo not drawn)", -3.64],
  ["CC(O)CN1CCN(Cc2coc(-c3ccc(Cl)cc3)n2)CC1 (stereo not drawn)", -5.87],
  ["Cc1cc(N2CCCN(C(=O)Cc3cc(F)cc(F)c3)CC2)ccn1", -1.71],
  ["Cc1cc(C)n(CCN2CCC(N(C)Cc3nnc(C)n3C)C2)n1 (stereo not drawn)", -0.44],
  ["CCc1oc(C(=O)N(C)Cc2ccncc2)cc1CN(CC)CC", -6.93],
  ["Cc1ccn(CCNC(=O)C2CCN(S(=O)(=O)c3ccc(F)cc3)C2)n1 (stereo not drawn)", 8.09],
  ["COc1ccc(Cl)cc1C(=O)N1C[C@@H](NC(=O)N(C)C)[C@H](C(C)C)C1", -10.5],
  ["O=S(=O)(NCC1CCN(c2cnccn2)CC1)C1CC1", 30.4],
  ["CN1CCN(S(=O)(=O)NCC2COc3ccccc3C2)CC1 (stereo not drawn)", -3.52],
  ["CCn1nc(C)c(CNC(=O)NCC(C)(O)c2ccsc2)c1C (stereo not drawn)", -8.94],
  ["Cn1cc(CN2CCn3cc(CNC(=O)CC4CC4)nc3C2)cn1", -7.17],
  ["CN(Cc1cc[nH]n1)C(=O)c1cccc(CCC(C)(C)O)c1", -3.42],
  ["CC(C)c1cc(NCC2(N3CCOCC3)CCCCC2)ncn1", 45.2],
  ["COCC(C)NC(=O)CN1CCCC1 (stereo not drawn)", -23.1],
  ["O=C(N1CCOCC1)[C@@]12CCO[C@@H]1CCN(Cc1cccc(F)c1)C2", -8.34],
  ["CC(=O)N1CCC(N2CC[C@H](c3nc4cc(C)ccc4o3)C2)CC1", -1.07],
  ["CC(C)Oc1ccc(C(=O)Nc2nncs2)cn1", 5.43],
  ["O=C(NCCn1ccnc1)c1csc2c1CCCC2", -10.8],
  ["Cc1c[nH]c(CN(C)C(C(=O)O)c2c(F)cccc2OC(C)C)n1 (stereo not drawn)", 1.64],
  ["COc1c(C)cnc(CNC(=O)CCOCC(C)C)c1C", -4.31],
  ["Cc1cc(C)n(CC2(CNC(=O)C(c3ccccc3C)N(C)C)CC2)n1 (stereo not drawn)", -10.8],
  ["CCOC(=O)N(C)C1CCN(Cc2cnc3ccccn23)CC1", -4.79],
  ["CC(C(=O)N1CCN(Cc2ccncc2)CC1)n1cncn1 (stereo not drawn)", -4.9],
  ["Cc1cc(C)nc(C2CCN(C3CCOCC3)C2)n1 (stereo not drawn)", -11.5],
  ["CCc1nnsc1C(=O)N1CCCN(Cc2ccc(F)cc2)CC1", -9.04],
  ["Cc1ccc(CN2CCC3(CCC3NS(=O)(=O)c3ccccc3)CC2)o1 (stereo not drawn)", 8.23],
  ["Cc1csc(C(C#N)C(=O)NCc2cccnc2)n1 (stereo not drawn)", -5.59],
  ["Cc1cc(CC2COc3ccccc3C2)cnc1N (stereo not drawn)", -13.2],
  ["CCc1c(-c2ccccc2)nc2c(c(C)c(C)n2CCN(C)C)c1N", 15.2],
  ["COc1ccc(-n2c(CO)nc3ccccc32)cc1CO", -6.11],
  ["Fc1cccc(-n2ccc(CN3CCCCC3Cn3cncn3)n2)c1 (stereo not drawn)", -13.3],
  ["CN(CCCNC(=O)c1ccccc1F)CC(F)(F)F", -2.12],
  ["CCc1c(C(=O)N2CCC(CC(N)=O)CC2)cnn1C(C)(C)C", -3.41],
  ["CCC1CN(C(=O)NCCOc2ccc3c(c2)OCO3)CCO1 (stereo not drawn)", -19.8],
  ["COc1ccc(NC(=O)C2CC2)cc1OCc1cccnc1", 23],
  ["COc1ccc(CCNC(=O)C(C)Nc2cc(C)ccc2C)cc1 (stereo not drawn)", -8.81],
  ["Cc1noc(C)c1-c1nc(C2CCCNC2)ccc1CO (stereo not drawn)", -5.83]
]}
